System: CCRIS mutagenicity, Ames/micronucleus/aberration tests
Assay: CCRIS mutagenicity studies
Conditions: Test System: AMES SALMONELLA TYPHIMURIUM; Strain/Indicator: TA1535; Metabolic Activation: HAMSTER, LIVER, S-9, AROCLOR 1254; Method: STANDARD PLATE
The source made the active and inactive calls. No rule for the calls is given here.
Log the outcome using a class from active, inactive

### Prompt What call does the record list for "CC(=O)CC(C)(C)O" ?
### Response inactive

### Prompt Follow-up entry: "NC(=Nc1ccccc1)Nc1ccccc1"
### Response inactive

### Prompt Follow-up entry: "c1ccc2nccnc2c1"
### Response inactive

### Prompt Follow-up entry: "CCCCCCCCCCCCS"
### Response inactive

### Prompt Follow-up entry: "CC(=O)C1(c2ccccc2)CCNCC1"
### Response inactive

### Prompt Follow-up entry: "O=C(/C=N/O)Nc1ccccc1"
### Response inactive

### Prompt Follow-up entry: "O=c1oc2cc(O)ccc2c2oc3cc(O)ccc3c12"
### Response inactive

### Prompt Follow-up entry: "Clc1nc2ccccc2nc1Cl"
### Response inactive

### Prompt Follow-up entry: CCOC(=O)C(Cl)C(C)=O (stereo unspecified)
### Response inactive

### Prompt Follow-up entry: "Nc1n[nH]c(=S)s1"
### Response inactive

### Prompt Follow-up entry: "CN(Cc1cccc(Br)c1)N=O"
### Response active

* * *

System: CCRIS mutagenicity, Ames/micronucleus/aberration tests
Test: CCRIS mutagenicity studies
Settings: Test System: AMES SALMONELLA TYPHIMURIUM; Strain/Indicator: TA100; Metabolic Activation: NONE; Method: PREINCUBATION
Calls of active or inactive are those of the source. How the calls were made is not given here.
Log the outcome using a class from active, inactive

O=[N+]([O-])c1c(Cl)c(Cl)cc(Cl)c1Cl
inactive
O=S(=O)(O)c1ccc(O)c2ncccc12
inactive
O=CC(=O)c1ccccc1
active
CC(=O)Oc1ccc2c(c1)C1(C)OOC1(C)O2 (stereo not drawn)
active
CC1=CC(=O)C=CC1=O
inactive
N#CCc1ccccc1
inactive
O=C(O)C(Br)Br
active

Now take the following compound into account.
### Prompt What call does the record list for "OC[P+](CO)(CO)CO" ?
### Response inactive

* * *

System: CCRIS mutagenicity, Ames/micronucleus/aberration tests
Test: CCRIS mutagenicity studies
Conditions: Test System: AMES SALMONELLA TYPHIMURIUM; Strain/Indicator: TA98; Metabolic Activation: RAT LIVER S-9, AROCLOR 1254; Method: STANDARD PLATE
Active and inactive are the calls of the source. The rule behind the calls is not given here.
Log the outcome using a class from active, inactive

Worked examples, 3 compounds total:
COC1=CC(=O)c2c(ncc3c4c([nH]c23)CCCC4)C1=O
active
CC1(C)[C@@H]2CC[C@@]1(C)C(=O)C2=O
inactive
CC(C)C[C@@H]1NC(=O)[C@H](C)N(C)C(=O)CNC(=O)/C(=C/c2ccccc2)N(C)C1=O
inactive

### Prompt What call does the record list for "O=C1C[C@H](O)[C@@H]2c3c(ccc(O)c31)-c1ccc(O)c3c1[C@@]2(O)CCC3=O" ?
### Response active

### Prompt Follow-up entry: "Cc1ccc2[nH]c3c(C)ccc(C)c3c2c1"
### Response active

### Prompt Follow-up entry: "COc1cc(CNC(=O)CCCC/C=C/C(C)C)ccc1O"
### Response inactive

### Prompt Follow-up entry: "Cc1c([N+](=O)[O-])cc(C)c2c1c1ccccc1n2C"
### Response active

### Prompt Follow-up entry: "[Ag][I]"
### Response inactive
